Experiment: Toxicokinetic analysis in rat plasma (Example 5)
Assay type: in vivo
Conditions: Day 14, belumosudil 150 mg base/kg, F
Procedure: TK animals were dosed for 70 and 14 days for the males and females, respectively. Dosing of TK males and females was initiated simultaneously, continuing to euthanasia. Refrigerated daily aliquots of dosing formulations were brought to room temperature while continuously stirring for at least 30 minutes prior to dosing.
PROPERTY: AUC0-24 in rat plasma (ng·h/mL)
// return numeric value only (unit: ng·h/mL, not printed)

Value of measured AUC0-24 in rat plasma for the entry O=C(O)COc1cccc(-c2nc(Nc3ccc4[nH]ncc4c3)c3ccccc3n2)c1 : 7110

Value of measured AUC0-24 in rat plasma for the entry CC(C)NC(=O)COc1cccc(-c2nc(Nc3ccc4[nH]ncc4c3)c3ccccc3n2)c1 : 99500

* * *

Experiment: Toxicokinetic analysis in rat plasma (Example 5)
Format: in vivo
Details: male, Sprague-Dawley, rat, plasma, po, 150 mg/kg/day; 150 mg base/kg/day, males; read-out: AUC0-24
PROPERTY: AUC(0-t)

Value of measured AUC(0-t) for the entry CC(C)NC(=O)COc1cccc(-c2nc(Nc3ccc4[nH]ncc4c3)c3ccccc3n2)c1 : 70100 ng·h/mL

* * *

Test: Pharmacokinetics in healthy subjects
Format: in vivo, human
Details: human, in vivo; single dose, geo CV % 67.7%; read-out: geometric mean volume of distribution
PROPERTY: Vd (L)
// return numeric value only (unit: L, not printed)

Value of measured Vd for the entry CC(C)NC(=O)COc1cccc(-c2nc(Nc3ccc4[nH]ncc4c3)c3ccccc3n2)c1 : 184

* * *

Assay: Toxicokinetic analysis in rat plasma (Example 5)
Assay type: in vivo
Details: Day 14, belumosudil 50 mg base/kg, F
PROPERTY: AUC0-24 in rat plasma (ng·h/mL)
// return numeric value only (unit: ng·h/mL, not printed)

Value of measured AUC0-24 in rat plasma for the entry O=C(O)COc1cccc(-c2nc(Nc3ccc4[nH]ncc4c3)c3ccccc3n2)c1 : 1390

Value of measured AUC0-24 in rat plasma for the entry CC(C)NC(=O)COc1cccc(-c2nc(Nc3ccc4[nH]ncc4c3)c3ccccc3n2)c1 : 26200

* * *

Assay: Toxicokinetic evaluation in pregnant rabbits (Example 4)
Type: in vivo, rabbit
Settings: female, New Zealand White, rabbit, plasma, po, 50 mg base/kg, GD 18, belumosudil 50 mg base/kg oral
PROPERTY: Cmax
# output: number + unit

Value of measured Cmax for the entry CC(C)NC(=O)COc1cccc(-c2nc(Nc3ccc4[nH]ncc4c3)c3ccccc3n2)c1 [belumosudil] : 437 ng/mL

* * *

Assay: Toxicokinetic analysis in rat plasma (Example 5)
Format: in vivo
Settings: Day 1, belumosudil 50 mg base/kg, F
I'd be grateful if you could share measured AUC0-24 in rat plasma for these entries.
// return numeric value only (unit: ng·h/mL, not printed)

Value of measured AUC0-24 in rat plasma for the entry O=C(O)COc1cccc(-c2nc(Nc3ccc4[nH]ncc4c3)c3ccccc3n2)c1 [KD025m2] : 2110

Value of measured AUC0-24 in rat plasma for the entry CC(C)NC(=O)COc1cccc(-c2nc(Nc3ccc4[nH]ncc4c3)c3ccccc3n2)c1 [belumosudil] : 49200

* * *

Assay: Toxicokinetics in pregnant New Zealand White rabbits (Example 2)
Assay type: in vivo, rabbit
Conditions: female, New Zealand White, rabbit, in vivo, po, 50 mg/kg/day; read-out: maternal Cmax
PROPERTY: Cmax (ng/mL)
// return numeric value only (unit: ng/mL, not printed)

Value of measured Cmax for the entry CC(C)NC(=O)COc1cccc(-c2nc(Nc3ccc4[nH]ncc4c3)c3ccccc3n2)c1 : 621
